Give Dmax for every item shown.
Molecular target: IKZF2 (Homo sapiens (Human), UniProt Q96SW2+Q9UKS7)
Sequence (Q9UKS7 whole entry): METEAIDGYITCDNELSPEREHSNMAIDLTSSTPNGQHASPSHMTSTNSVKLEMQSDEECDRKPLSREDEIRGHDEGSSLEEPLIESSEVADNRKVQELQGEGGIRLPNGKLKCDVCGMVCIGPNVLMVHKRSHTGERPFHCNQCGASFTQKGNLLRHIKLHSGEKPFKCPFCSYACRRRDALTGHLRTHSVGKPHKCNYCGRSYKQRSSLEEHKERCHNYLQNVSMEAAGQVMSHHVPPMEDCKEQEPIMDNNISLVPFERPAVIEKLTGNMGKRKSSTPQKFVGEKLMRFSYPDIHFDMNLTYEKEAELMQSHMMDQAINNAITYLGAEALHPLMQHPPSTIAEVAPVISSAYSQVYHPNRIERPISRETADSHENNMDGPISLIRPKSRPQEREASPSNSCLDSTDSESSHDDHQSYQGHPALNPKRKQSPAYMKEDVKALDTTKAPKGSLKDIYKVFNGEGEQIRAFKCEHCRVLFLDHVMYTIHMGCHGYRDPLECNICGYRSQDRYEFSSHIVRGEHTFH
Sequence (Q96SW2 whole entry): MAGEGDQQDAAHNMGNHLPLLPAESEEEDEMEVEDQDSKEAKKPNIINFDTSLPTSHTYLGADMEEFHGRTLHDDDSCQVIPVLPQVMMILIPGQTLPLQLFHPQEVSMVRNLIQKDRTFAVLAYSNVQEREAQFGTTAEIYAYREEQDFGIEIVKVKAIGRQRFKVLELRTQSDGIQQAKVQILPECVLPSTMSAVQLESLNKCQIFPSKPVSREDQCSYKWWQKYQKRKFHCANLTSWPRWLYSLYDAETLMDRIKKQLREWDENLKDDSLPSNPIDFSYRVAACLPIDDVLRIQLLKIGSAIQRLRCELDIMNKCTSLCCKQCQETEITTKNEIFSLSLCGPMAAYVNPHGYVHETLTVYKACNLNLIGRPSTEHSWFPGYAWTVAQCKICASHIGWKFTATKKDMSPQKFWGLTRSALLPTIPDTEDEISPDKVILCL
Sequence (Q16531 whole entry partner): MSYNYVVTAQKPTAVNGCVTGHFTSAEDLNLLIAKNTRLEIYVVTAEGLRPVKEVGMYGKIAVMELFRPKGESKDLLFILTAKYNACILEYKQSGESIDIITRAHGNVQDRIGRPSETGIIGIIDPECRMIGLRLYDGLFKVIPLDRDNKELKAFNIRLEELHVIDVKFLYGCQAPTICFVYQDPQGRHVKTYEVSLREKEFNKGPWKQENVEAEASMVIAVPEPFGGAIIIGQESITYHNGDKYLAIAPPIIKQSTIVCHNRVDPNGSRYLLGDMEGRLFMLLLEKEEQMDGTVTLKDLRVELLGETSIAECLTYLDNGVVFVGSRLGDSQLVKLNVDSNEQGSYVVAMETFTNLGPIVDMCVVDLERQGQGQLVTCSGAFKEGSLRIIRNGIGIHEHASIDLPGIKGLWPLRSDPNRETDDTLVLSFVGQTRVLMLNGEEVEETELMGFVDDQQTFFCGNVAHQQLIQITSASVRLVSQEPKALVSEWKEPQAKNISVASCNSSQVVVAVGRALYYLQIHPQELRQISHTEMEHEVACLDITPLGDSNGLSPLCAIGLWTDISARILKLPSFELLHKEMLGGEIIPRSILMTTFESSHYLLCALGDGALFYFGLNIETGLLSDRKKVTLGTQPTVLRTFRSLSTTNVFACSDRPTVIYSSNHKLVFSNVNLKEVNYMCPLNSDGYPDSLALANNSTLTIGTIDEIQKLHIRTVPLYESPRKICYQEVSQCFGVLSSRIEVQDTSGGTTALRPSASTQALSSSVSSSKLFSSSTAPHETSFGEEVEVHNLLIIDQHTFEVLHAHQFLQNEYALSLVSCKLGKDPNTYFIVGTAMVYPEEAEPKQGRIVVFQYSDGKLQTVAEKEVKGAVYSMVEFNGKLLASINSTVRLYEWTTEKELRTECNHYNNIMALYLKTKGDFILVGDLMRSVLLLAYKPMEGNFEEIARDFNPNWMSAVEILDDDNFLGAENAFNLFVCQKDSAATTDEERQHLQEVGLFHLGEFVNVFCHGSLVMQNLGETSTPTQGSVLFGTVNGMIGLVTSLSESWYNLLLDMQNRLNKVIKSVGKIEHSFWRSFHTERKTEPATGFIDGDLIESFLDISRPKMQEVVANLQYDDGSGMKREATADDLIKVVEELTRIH
Experiment: IKZF2 HiBiT Assay (Jurkat-IKZF2-HiBiT cell line)
Type: cell-based
Conditions: Jurkat-IKZF2-HiBiT cells, 24 hours; read-out: HiBit assay degradation analysis Dmax

Inquiry: Dmax for CCn1cc2ccc(CN3CCC4(CC3)COc3c4ccc4c3CN([C@H]3CCC(=O)NC3=O)C4=O)cc2n1 ?
Reply text: 60 to 80%

Inquiry: Dmax for O=C1CCC(N2Cc3c(ccc4c3OCC43CCN(Cc4ccc5occc5c4)CC3)C2=O)C(=O)N1 (stereo not shown) ?
Reply text: 60 to 80%

Inquiry: Dmax for O=C1CCC(N2Cc3c(ccc4c3OCC43CCN(Cc4ccc5ncsc5c4)CC3)C2=O)C(=O)N1 (stereo not shown) ?
Reply text: 40 to 60%

Inquiry: Dmax for O=C1CCC(N2Cc3c(ccc4c3OCC43CCN(Cc4ccc(C(F)(F)F)cc4)CC3)C2=O)C(=O)N1 (stereo not shown) ?
Reply text: < 40%

Inquiry: Dmax for O=C1CCC(N2Cc3c(ccc4c3OCC43CCN(Cc4cccc(OCc5ccccn5)c4)CC3)C2=O)C(=O)N1 (stereo not shown) ?
Reply text: 60 to 80%

Inquiry: Dmax for O=C1CCC(N2Cc3c(ccc4c3OCC43CCN(Cc4csc(-c5ccccc5)n4)CC3)C2=O)C(=O)N1 (stereo not shown) ?
Reply text: < 40%

Inquiry: Dmax for O=C1CCC(N2Cc3c(ccc4c3OCC43CCN(Cc4ccc(C(F)F)cc4)CC3)C2=O)C(=O)N1 (stereo not shown) ?
Reply text: 40 to 60%

###

Biological target: IKZF1 (Homo sapiens (Human), UniProt Q13422+Q96SW2)
Sequence (Q13422 whole entry): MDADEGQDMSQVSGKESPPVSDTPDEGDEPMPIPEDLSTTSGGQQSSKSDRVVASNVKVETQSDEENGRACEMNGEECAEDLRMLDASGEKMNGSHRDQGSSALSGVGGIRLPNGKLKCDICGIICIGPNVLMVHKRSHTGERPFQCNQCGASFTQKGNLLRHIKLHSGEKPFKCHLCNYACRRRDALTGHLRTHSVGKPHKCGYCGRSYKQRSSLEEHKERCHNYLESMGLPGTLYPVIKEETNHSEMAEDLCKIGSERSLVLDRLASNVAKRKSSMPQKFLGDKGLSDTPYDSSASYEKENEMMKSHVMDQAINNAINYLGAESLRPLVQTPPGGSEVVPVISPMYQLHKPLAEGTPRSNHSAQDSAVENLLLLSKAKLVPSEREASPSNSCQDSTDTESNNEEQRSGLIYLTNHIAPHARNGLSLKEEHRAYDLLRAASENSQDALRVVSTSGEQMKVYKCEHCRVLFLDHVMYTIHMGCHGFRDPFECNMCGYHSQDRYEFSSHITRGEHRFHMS
Sequence (Q96SW2 whole entry): as the sequence (Q96SW2 whole entry) above
Sequence (Q16531 whole entry partner): as the sequence (Q16531 whole entry partner) above
Assay: IKZF1 HiBit Assay (HEK293T Flp-in-HiBiT-IKZF1 stable cell line)
Type: cell-based
Details: HEK-293T; HEK293T Flp-in-HiBiT-IKZF1 cells, 6 hrs; read-out: IKZF1 HiBit degradation Dmax
Give Dmax for every item shown.

Inquiry: Dmax for [2H]C([2H])(c1cccc(-c2cnn(C([2H])([2H])[2H])c2)c1)N1CCC2(COc3c2ccc2c3CN([C@H]3CCC(=O)NC3=O)C2=O)C(F)(F)C1 (stereo partly drawn) ?
Reply text: < 20%

Inquiry: Dmax for O=C1CC[C@H](N2Cc3c(ccc4c3OCC43CCN(Cc4cnn(CC5CCS(=O)(=O)CC5)c4)CC3(F)F)C2=O)C(=O)N1 (stereo partly drawn) ?
Reply text: < 20%

Inquiry: Dmax for [2H]C1([2H])Oc2c(ccc3c2CN(C2CCC(=O)NC2=O)C3=O)C12CCN(Cc1cccc(-c3cnn(C)c3)c1)CC2 (stereo not drawn) ?
Reply text: < 20%

###

Molecular target: IKZF2 (Homo sapiens (Human), UniProt Q96SW2+Q9UKS7)
Experiment: IKZF2 HiBiT Assay (Jurkat-IKZF2-HiBiT cell line)
Format: cell-based
Conditions: Jurkat-IKZF2-HiBiT cells, 24 hours; read-out: HiBit assay degradation analysis DC50
Give DC50 for every item shown.

Inquiry: DC50 for O=C1CCC(N2Cc3c(ccc4c3OCC43CCN(Cc4cccc(-c5ccccc5)c4)CC3)C2=O)C(=O)N1 (stereo not shown) [Compound A102] ?
Reply text: 200 to 500 nM

Inquiry: DC50 for CS(=O)(=O)c1ccc(CN2CCC3(CC2)COc2c3ccc3c2CN(C2CCC(=O)NC2=O)C3=O)cc1 (stereo not shown) [Compound A236] ?
Reply text: > 500 nM

Inquiry: DC50 for O=C1CCC(N2Cc3c(ccc4c3OCC43CCN(CC4CCOCC4)CC3)C2=O)C(=O)N1 (stereo not shown) [Compound A20] ?
Reply text: > 500 nM

Inquiry: DC50 for N#Cc1ccc(CN2CCC3(CC2)COc2c3ccc3c2CN(C2CCC(=O)NC2=O)C3=O)cc1 (stereo not shown) [Compound A195] ?
Reply text: > 500 nM

Inquiry: DC50 for [2H]C([2H])([2H])n1ccc(-c2cccc(CN3CCC4(CC3)COc3c4ccc4c3CN([C@H]3CCC(=O)NC3=O)C4=O)c2)n1 [Compound A302] ?
Reply text: < 50 nM

Inquiry: DC50 for O=C1CCC(N2Cc3c(ccc4c3OCC43CCN(Cc4ccnc(Cl)c4)CC3)C2=O)C(=O)N1 (stereo not shown) [Compound A250] ?
Reply text: > 500 nM

Inquiry: DC50 for O=C1CCC(N2Cc3c(ccc4c3OCC43CCN(Cc4ccsc4)CC3)C2=O)C(=O)N1 (stereo not shown) [Compound A183] ?
Reply text: 200 to 500 nM
